Origin of measurements: ChEMBL document CHEMBL1201862

# Tested on: HOP-92
# Protocol summary: NCI tumour cell line growth inhibition, 48 h
The source made the active and inactive calls. No stated cut-off is given here; in the data, active = GI50 up to about 1.1 µM and inactive = higher. Starred links: 1 amine or outer side, 2 acyl side, 3 side chain; linkers in the order of their positions; H or OH if unused. Positions of bridges follow the written chain, without caps; N, C: chain ends. Non-standard residues stand in square brackets, D forms with d. Residues, ends and D or L forms follow the SMILES beside them. ξ: configuration not given here. X11 = CCC(C)C(N[*:1])C(O)CC(=O)O[C@H](C(=O)C(C)C(=O)[*:2])C(C)C; X10 = O=C([C@@H]1CC(O)CN1[*:1])[*:2]; NMeY = CN[C@@H](Cc1ccc(O)cc1)C(=O)O; ξNMeL = CNC(CC(C)C)C(=O)O; ξT = CC(O)C(N)C(=O)O
Select the correct class. Options are 1 (active), 0 (inactive) and nothing else.

Task: Hey, what did the test say about CCC(=O)OC1CCn2c1nc1c2C(=O)C(C)=C(NC(C)=O)C1=O (centres undefined) ?
Output: 0

Task: Hey, what did the test say about CC1(C)Oc2ccccc2OC1O (centres undefined) ?
Output: 0

Task: Hey, what did the test say about Cc1ccc(S(=O)(=O)NN=C2CCCCCCCCCCC2)cc1 ?
Output: 0

Task: Hey, what did the test say about C#CCN(Cc1ccc2nc(-c3ccccc3)c(Cl)nc2c1)c1ccc(Cl)c(Cl)c1 ?
Output: 0

Task: Hey, what did the test say about Cc1ccc(-n2cnc3c(N)nc(N)nc32)cc1 ?
Output: 0

Task: Hey, what did the test say about CC1(C)OC(=O)[C@@](C)([C@H](O)c2ccccc2)O1 ?
Output: 0

Task: Hey, what did the test say about NC(=S)N/N=C/C(O[C@@H](/C=N/NC(N)=S)CO)n1cnc2c(N)ncnc21 (some centres undefined) ?
Output: 0

Task: Hey, what did the test say about CCOC(=O)C1C(=O)CN2CCc3c([nH]c4ccccc34)C12C(=O)OCC (centres undefined) ?
Output: 0

Task: Hey, what did the test say about O=C1/C(=C/c2ccccc2)CCC/C1=C\c1ccccc1 ?
Output: 0

Task: Hey, what did the test say about COc1cccc(-c2[nH]c3cc4c(cc3c(=O)c2C(=O)O)OCO4)c1 ?
Output: 0

Task: Hey, what did the test say about Cc1ccc2c(c1)CC1(C2)Cc2ccc(C)cc2C1=O (centres undefined) ?
Output: 0

Task: Hey, what did the test say about COC1CC(=O)C2C(=O)N(c3ccccc3)C(=O)C23C(C(=O)c2ccccc2)=C(C)NC13O (centres undefined) ?
Output: 1

Task: Hey, what did the test say about Cc1c(C)c2ccc3oc4ccccc4c3c2oc1=O ?
Output: 0

Task: Hey, what did the test say about CCC(C)C1NC(=O)C(NC(=O)C(CC(C)C)N(C)C(=O)[C@@H]2CC(O)CN2)C(C)OC(=O)[C@H](Cc2ccc(OC)cc2)N(C)C(=O)[C@@H]2CCCN2C(=O)[C@H](CC(C)C)NC(=O)C(C)C(=O)[C@H](C(C)C)OC(=O)CC1O (some centres undefined) (H-[X10][ξNMeL][ξT][X11]LP[NMeY](Me); ester 3-C) ?
Output: 1

Task: Hey, what did the test say about C=C1CC(C#N)(C#N)[C@@H]2CC3CCCC3[C@H]12.C=C1CC(C#N)(C#N)[C@H]2C3CCCC3C[C@@H]12 (some centres undefined) ?
Output: 0

Task: Hey, what did the test say about CSC1=Nc2ccccc2N(C)c2c1c(-c1ccccc1)nn2C ?
Output: 0

Task: Hey, what did the test say about Cc1cc(O)nc(NN2C(Cl)C(=O)C2c2cccc([N+](=O)[O-])c2)n1 (centres undefined) ?
Output: 0

Task: Hey, what did the test say about O=C1CCCc2ccc3c(c21)CC1(Cc2ccccc2C1)C3 ?
Output: 0

Task: Hey, what did the test say about [N-]=[N+]=CC(=O)OCCCCl ?
Output: 0
